Molecular target: CIB1 and αIIb interaction (CIB1-GST : F-αIIb peptide) (Homo sapiens, UniProt Q99828)
Construct: made in house; host or cells: BL-21 plus RIL cells (E. coli)
Test: FP assay, 1536-well qHTS format (primary and confirmatory screen)
Assay type: binding
Details: qHTS primary screen hits, Table S2; negative sign = inhibitory curve; several classes where COUNT > 1
experimental-readout: Curve Class

compound="O=C(O)C(F)(F)F.O=S(=O)(Nc1ccc(O)c2ncccc12)c1ccccc1F [NCGC00184887-02]" obs_value=-3
compound="Cc1ccnc(NC(=S)N2CCN(c3cccc(C(F)(F)F)c3)CC2)n1.O=C(O)C(F)(F)F [NCGC00242308-01]" obs_value=-2.2
compound="O=C(Nc1ccc(S(=O)(=O)N2CCOCC2)cc1)c1ccc(CN2CCCc3ccccc32)cc1.O=C(O)C(F)(F)F [NCGC00348355-01]" obs_value=-2.4
compound="Cc1nc(CNc2ncnc3ccc(-c4ccc(CO)o4)cc23)cs1.O=C(O)C(F)(F)F [NCGC00188652-01]" obs_value=-2.4
compound="CCC(=O)NC(c1cccs1)c1cc(Cl)c2cccnc2c1O (centres unmarked) [NCGC00188867-01]" obs_value=-2.4
compound="O=C(O)C(F)(F)F.O=C1CC(c2ccccc2Br)c2sc(N3CCOCC3)nc2N1 (centres unmarked) [NCGC00488255-02]" obs_value=-2.4
compound="COc1ccccc1C(=O)/C=C1/C(=O)Nc2ccc(C)cc21.O=C(O)C(F)(F)F [NCGC00481357-01]" obs_value=-1.2
compound="O=C(O)C(F)(F)F.OCc1ccc(-c2ccc3ncnc(NCc4cccs4)c3c2)o1 [NCGC00189276-01]" obs_value=-1.2

* * *

Biological target: GST-CIB1 : F-scrambled peptide (Homo sapiens)
Construct: made in house; host or cells: BL-21 plus RIL cells (E. coli)
Sequence (Q99828 whole entry): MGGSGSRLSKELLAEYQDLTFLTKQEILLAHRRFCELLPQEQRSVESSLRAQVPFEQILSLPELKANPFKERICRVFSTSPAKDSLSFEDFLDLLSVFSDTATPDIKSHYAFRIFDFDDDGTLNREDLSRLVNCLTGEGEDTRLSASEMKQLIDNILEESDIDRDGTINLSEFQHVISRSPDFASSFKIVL
Assay: FP scrambled-peptide counter screen, 1536-well format
Assay type: binding
Details: counterscreen
Values of Efficacy (%) (counterscreen) strictly less than -60% map to true (1), and values of at least -60% map to false (0).

structure_notation=Cc1cnc(-c2ccccc2C(C)C)nc1NCc1ccc(-c2ccc(F)nc2)cc1.O=C(O)C(F)(F)F label="true (1)"
structure_notation=C=C1[C@@H](C)[C@H]2[C@H](Cc3ccccc3)NC(=O)[C@]23OC(=O)/C=C/C(=O)CCC[C@@H](C)C/C=C/[C@H]3[C@@H]1O label="false (0)"
structure_notation=CCOC(=O)c1c(-c2ccc(C)o2)csc1NC(=O)CSc1nnnn1-c1ccccc1.O=C(O)C(F)(F)F label="false (0)"
structure_notation=COc1nc2ccc(Br)cc2cc1[C@@H](c1ccccc1)[C@@](O)(CCN(C)C)c1cccc2ccccc12 label="true (1)"
structure_notation=O=c1[nH]c(=O)c2nc3ccccc3nc2[nH]1 label="true (1)"
structure_notation=O=c1cc(-c2ccccc2)oc2cc(O)c(O)c(O)c12 label="true (1)"
structure_notation=CC1(C)C=CN2C(=O)C3=CCCN3C(=O)[C@@H]2C[C@@]12Nc1ccccc1C2=O label="false (0)"
structure_notation=Cl.N=C(NCCCCCCNC(=N)NC(=N)Nc1ccc(Cl)cc1)NC(=N)Nc1ccc(Cl)cc1 label="false (0)"

* * *

Biological target: CIB1 and αIIb interaction (CIB1-GST : F-αIIb peptide) (Homo sapiens, UniProt Q99828)
Construct: made in house; host or cells: BL-21 plus RIL cells (E. coli)
Test: FP assay, 1536-well qHTS format (primary and confirmatory screen)
Type: binding
Settings: qHTS primary screen hits, Table S2; read-out: IC50
pIC50: −log10 of the molar value.
In this section we review reported pIC50 values for a set of compounds.
experimental-readout: pIC50

compound="Cc1ccc(C)n1-c1sccc1C(=O)O [NCGC00253437-01]" obs_value=4.35
compound="O=[N+]([O-])c1ccc(O)c2ncccc12 [NCGC00160664-03]" obs_value=4.50
compound="C#CCCC(=O)Nc1sc2c(c1-c1nc3ccccc3s1)CCN(C(C)C)C2.O=C(O)C(F)(F)F [NCGC00185086-01]" obs_value=5.46
compound="CNS(=O)(=O)c1ccc(Cc2c(-c3cccc(-c4ccccc4)c3)nn(-c3nc(C(=O)O)cs3)c2O)cc1.O=C(O)C(F)(F)F [NCGC00356637-01]" obs_value=4.10
compound="O=C(O)C(F)(F)F.O=S(=O)(Nc1ccc(N2CCNCC2)cc1)c1ccc(NCc2ccc(Br)cc2O)cc1 [NCGC00343874-01]" obs_value=4.10
compound="COc1cccc2c1C(=O)c1c(O)c3c(c(O)c1C2=O)C[C@@](O)(C(=O)CO)CC3OC1CC(N2CCOC(OC)C2)C(O)C(C)O1 (some centres unmarked) [NCGC00319019-01]" obs_value=5.00
compound="Cl.Nc1ccc2cc3ccc(N)cc3nc2c1.Nc1ccc2cc3ccc(N)cc3nc2c1.O=S(=O)(O)O [NCGC00166245-04]" obs_value=5.66
compound="NS(=O)(=O)c1cccc2c1c([N+](=O)[O-])cc1nc(O)c([O-])nc12.[Na+] [NCGC00024961-03]" obs_value=5.30
